All values here come from paper PMC4791841.

Target: CthTTM (Acetivibrio thermocellus)
Assay: TLC assay for 32Pi release from [γ-32P]ATP, CthTTM
Format: biochemical, Clostridium thermocellum
Conditions: read-out: IC50 CthTTM; 500 nM CthTTM, 37°C
Below, each of the compounds is paired with its reported IC50 value.
Provide only the numeric value, understood in µM.

### Prompt Quickly give me recorded IC50 for `O=C(CCO[C@@H]1O[C@H](CO)[C@@H](O)[C@H](O)[C@H]1O)c1ccc(O)cc1`
### Response 29

### Prompt Quickly give me recorded IC50 for `O=C(Oc1cc(C(=O)O[C@@H]2C[C@@](O)(C(=O)O)C[C@@H](OC(=O)c3cc(O)c(O)c(O)c3)[C@@H]2O)cc(O)c1O)c1cc(O)c(O)c(O)c1`
### Response 21

###

Target: MimiCE (Acanthamoeba polyphaga mimivirus, UniProt Q5UQX1)
Construct: the N-terminal RTPase domain (amino acids [aa] 1 to 237) of mimivirus capping enzyme (MimiCE); HisSmt3 (N, cleaved yes); made in house; host or cells: Escherichia coli
Sequence (Q5UQX1 1-237): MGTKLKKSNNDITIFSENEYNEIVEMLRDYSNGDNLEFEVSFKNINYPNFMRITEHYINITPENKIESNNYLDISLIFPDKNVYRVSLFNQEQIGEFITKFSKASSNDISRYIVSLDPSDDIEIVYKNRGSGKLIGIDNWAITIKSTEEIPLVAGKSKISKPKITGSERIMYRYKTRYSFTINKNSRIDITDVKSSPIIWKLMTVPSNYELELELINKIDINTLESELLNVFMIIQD
Assay: biochemical
Format: biochemical
pIC50: −log10 of the molar value.
Below, each of the compounds is paired with its reported pIC50 value.

{"columns": ["COMPOUND", "MEASURED_PARAMETER", "ENDPOINT_RESULT"],
 "data": [
  ["O=C(/C=C/c1ccc(O)cc1)OC1[C@H](O)CC(O)(C(=O)O)C[C@H]1O (stereo partly drawn) [Compound 1N]", "pIC50", "< 3.30"]
]}

### Prompt Please report the measured pIC50 for O=C(O[C@@H]1C[C@@](O)(C(=O)O)C[C@@H](O)[C@@H]1O)c1cc(O)c(O)c(O)c1 [Compound 1O, 5-galloylquinic acid] tested on MimiCE (Acanthamoeba polyphaga mimivirus, UniProt Q5UQX1).
### Response < 3.30

### Prompt Please report the measured pIC50 for O=C(/C=C/c1ccccc1)O[C@@H]1C[C@](OC(=O)/C=C/c2ccccc2)(C(=O)O)C[C@@H](OC(=O)/C=C/c2ccccc2)[C@H]1OC(=O)/C=C/c1ccccc1 [Compound 1I, tetracinnamoylquinic acid] tested on MimiCE (Acanthamoeba polyphaga mimivirus, UniProt Q5UQX1).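 Further: mimivirus capping enzyme triphosphatase ATPase reaction, radiolabeled ATP hydrolysis to Pi quantified by TLC after 10 min, normalized to no-inhibitor control with 5% DMSO.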
### Response 4.77

###

Below, each of the molecules is paired with its reported IC50 value.
Molecular target: CthTTM (Acetivibrio thermocellus, UniProt A3DIJ8)
Assay: TLC assay for 32Pi release from [γ-32P]ATP, CthTTM
Assay type: biochemical, Clostridium thermocellum
Settings: 500 nM CthTTM, 37°C; read-out: IC50 CthTTM

{"columns": ["GIVEN_SMILES", "IC50"],
 "data": [
  ["COc1ccc(/C=C/C(=O)O[C@@H]2C[C@@](O)(C(=O)O)C[C@@H](O)[C@@H]2O)cc1O", "> 500 µM"],
  ["O=C(/C=C/c1ccc(O)c(O)c1)O[C@@H]1C[C@](OC(=O)/C=C/c2ccc(O)c(O)c2)(C(=O)O)C[C@@H](O)[C@H]1O", "55 µM"]
]}

### Prompt Quickly give me recorded IC50 for `COc1cc(/C=C/C(=O)O[C@@H]2C[C@](O)(C(=O)O)C[C@@H](O)[C@H]2O)ccc1O`
### Response > 500 µM

###

Molecular target: SceCet1 (Saccharomyces cerevisiae, UniProt O13297)
Construct: C-terminal catalytic domain (aa 241 to 539) of S. cerevisiae RTPase (SceCet1); made in house; host or cells: Escherichia coli
Sequence (O13297 241-539): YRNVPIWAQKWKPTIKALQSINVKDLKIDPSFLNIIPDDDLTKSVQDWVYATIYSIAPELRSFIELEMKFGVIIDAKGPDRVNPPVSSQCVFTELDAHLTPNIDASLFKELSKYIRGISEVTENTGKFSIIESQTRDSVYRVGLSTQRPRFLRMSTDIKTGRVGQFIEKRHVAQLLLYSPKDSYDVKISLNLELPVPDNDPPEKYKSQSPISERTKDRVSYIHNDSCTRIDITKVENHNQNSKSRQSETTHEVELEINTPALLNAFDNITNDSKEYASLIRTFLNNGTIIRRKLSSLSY
Test: TLC assay for 32Pi release from [γ-32P]ATP, SceCet1
Format: biochemical
MEASURED_PARAMETER: IC50 (nM)
Provide only the numeric value, understood in nM.

### Prompt Please report the measured IC50 for O=C(/C=C/c1ccc(O)c(O)c1)O[C@@H]1[C@H](OC(=O)/C=C/c2ccc(O)c(O)c2)C[C@]2(OC(=O)/C=C/c3ccc(O)c(O)c3)C[C@H]1OC2=O [Compound 6A, 1,4,5-tricaffeoylquinide] tested on SceCet1 (Saccharomyces cerevisiae, UniProt O13297).
### Response 2000

###

Target: TbCet1 (Trypanosoma brucei brucei)
Sequence (Q582T2 1-253): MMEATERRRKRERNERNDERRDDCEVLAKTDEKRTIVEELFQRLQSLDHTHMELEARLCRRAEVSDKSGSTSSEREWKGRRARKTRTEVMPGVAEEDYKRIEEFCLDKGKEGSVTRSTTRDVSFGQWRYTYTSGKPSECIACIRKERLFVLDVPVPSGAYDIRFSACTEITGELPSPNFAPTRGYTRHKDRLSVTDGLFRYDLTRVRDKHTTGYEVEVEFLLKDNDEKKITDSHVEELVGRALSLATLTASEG
Test: TLC assay for 32Pi release from [γ-32P]ATP, TbCet1
Details: 32P phosphate release assay
MEASURED_PARAMETER: inhibition of TbCet1 (in words)

{"columns": ["MOLECULE", "ASSAY_TARGET", "ENDPOINT_RESULT"],
 "data": [
  ["O=C(C=Cc1ccccc1)OC1C=C(C(=O)O)CC(OC(=O)C=Cc2ccccc2)C1O (centres unmarked) [Compound 6D, 3,5-dicannamolylshikimate]", "TbCet1 (Trypanosoma brucei brucei)", "did not inhibit"],
  ["O=C(/C=C/c1ccc(O)c(O)c1)O[C@@H]1CC(C(=O)O)=C[C@@H](O)[C@H]1O [Compound 6E, 5-caffeoylshikimate]", "TbCet1 (Trypanosoma brucei brucei)", "did not inhibit"],
  ["O=C(O)[C@]1(O)C[C@@H](O)[C@@H](O)[C@H](O)C1 [Quinic acid, reference compound]", "TbCet1 (Trypanosoma brucei brucei)", "no inhibition"],
  ["O=C(O)c1cc(O)c(O)c(O)c1 [gallic acid, 3,4,5-trihydroxybenzoic acid, reference compound]", "TbCet1 (Trypanosoma brucei brucei)", "no inhibition"]
]}

###

Target: Lef4 (Autographa californica nuclear polyhedrosis virus, UniProt P41477)
Construct: the N-terminal RTPase domain (aa 1 to 236) of AcNPV Lef4 capping enzyme; HisSmt3 (N, cleaved yes); made in house; host or cells: Escherichia coli
Sequence (P41477 1-236): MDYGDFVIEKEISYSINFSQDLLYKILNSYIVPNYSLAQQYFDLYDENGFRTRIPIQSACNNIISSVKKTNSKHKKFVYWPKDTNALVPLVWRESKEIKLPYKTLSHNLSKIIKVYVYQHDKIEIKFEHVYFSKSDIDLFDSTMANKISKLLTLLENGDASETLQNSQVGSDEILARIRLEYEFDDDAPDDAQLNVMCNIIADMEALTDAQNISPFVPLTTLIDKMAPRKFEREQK
Experiment: TLC assay for 32Pi release from [γ-32P]ATP, Lef4;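 further: Lef4 RNA triphosphatase cleaving radiolabelled ATP over 10 min at 37°C, hydrolysis set relative to inhibitor-free 5% DMSO controls, comparisons made against TbCet1 tested the same way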
Type: biochemical, Autographa californica nucleopolyhedrovirus (AcNPV)
Settings: 50 nM Lef4, 37°C; read-out: IC50 Lef4
Below, each of the compounds is paired with its reported IC50 value.
Provide only the numeric value, understood in µM.

{"columns": ["COMPOUND", "RESULT_UNITS", "IC50"],
 "data": [
  ["O=C(/C=C/c1ccccc1)O[C@@H]1C[C@](OC(=O)/C=C/c2ccccc2)(C(=O)O)C[C@@H](OC(=O)/C=C/c2ccccc2)[C@H]1OC(=O)/C=C/c1ccccc1", "µM", 6],
  ["O=C(/C=C/c1ccc(O)c(O)c1)O[C@@H]1C[C@](OC(=O)/C=C/c2ccc(O)c(O)c2)(C(=O)O)C[C@@H](O)[C@H]1O", "µM", 22],
  ["CC(=O)O[C@@]12C[C@@H](OC(=O)/C=C/c3ccc(O)c(O)c3)[C@@H](OC(=O)/C=C/c3ccc(O)c(O)c3)[C@@H](C1)OC2=O [Compound 6C, 1-acetyl,4,5-dicaffeoylquinide]", "µM", 21],
  ["O=C(/C=C/c1ccc(O)cc1)O[C@@H]1[C@H](O)C[C@@](O)(C(=O)O)C[C@H]1OC(=O)/C=C/c1ccc(O)cc1", "µM", 140],
  ["O=C(/C=C/c1ccc(O)c(O)c1)O[C@@H]1[C@H](OC(=O)/C=C/c2ccc(O)c(O)c2)C[C@]2(OC(=O)/C=C/c3ccc(O)c(O)c3)C[C@H]1OC2=O [Compound 6A, 1,4,5-tricaffeoylquinide]", "µM", 2.6]
]}

### Prompt Quickly give me recorded IC50 for O=C(C=Cc1ccccc1)OC1C=C(C(=O)O)CC(OC(=O)C=Cc2ccccc2)C1OC(=O)C=Cc1ccccc1 (stereo not drawn)
### Response 10

### Prompt Quickly give me recorded IC50 for O=C(OC1[C@H](OC(=O)c2ccccc2)CC(OC(=O)c2ccccc2)(C(=O)O)C[C@H]1OC(=O)c1ccccc1)c1ccccc1 (stereo partly drawn)
### Response 46

###

Below, each of the compounds is paired with its reported IC50 value.
Biological target: CthTTM (Acetivibrio thermocellus)
Sequence (A3DIJ8 1-156): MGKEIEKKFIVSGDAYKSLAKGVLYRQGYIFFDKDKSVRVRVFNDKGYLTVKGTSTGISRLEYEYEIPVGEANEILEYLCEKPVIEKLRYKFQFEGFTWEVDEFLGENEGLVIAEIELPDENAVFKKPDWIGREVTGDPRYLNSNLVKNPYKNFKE
Test: TLC assay for 32Pi release from [γ-32P]ATP, CthTTM
Format: biochemical, Clostridium thermocellum
Provide only the numeric value, understood in µM.

{"columns": ["COMPOUND", "IC50, µM"],
 "data": [
  ["O=C(/C=C/c1ccc(O)c(O)c1)O[C@@H]1[C@H](OC(=O)/C=C/c2ccc(O)c(O)c2)C[C@]2(OC(=O)/C=C/c3ccc(O)c(O)c3)C[C@H]1OC2=O [Compound 6A, 1,4,5-tricaffeoylquinide]", 6.4],
  ["O=C(OC1[C@H](OC(=O)c2ccccc2)CC(OC(=O)c2ccccc2)(C(=O)O)C[C@H]1OC(=O)c1ccccc1)c1ccccc1 (stereo partly shown)", 72]
]}

Would you kindly look at the next entry?
### Prompt Quickly give me recorded IC50 for O=C(O)C1OC(Oc2c(-c3ccc(O)c(O)c3)oc3cc(O)cc(O)c3c2=O)C(O)C(O)C1O (stereo not shown)
### Response 24
